assayed system: Recombinant human his-tagged IGF 1R extracellular domain protein (human) (UniProt P08069)
experiment notes: SPR, captured IgG, IGF-1R ECD-his analyte, dissociation pH 7.4
measure name: kon (M⁻¹ s⁻¹)
Numeric only. Scale: M⁻¹ s⁻¹

Asked: Entry under review: VRDN-02551 (antibody, V domains shown) VH: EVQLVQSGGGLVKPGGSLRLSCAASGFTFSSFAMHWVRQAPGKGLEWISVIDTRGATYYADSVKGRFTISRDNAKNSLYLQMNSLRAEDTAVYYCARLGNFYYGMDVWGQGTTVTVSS VL: EIVLTQSPGTLSVSPGERATLSCRASQSIGSSLHWYQQKPGQAPRLLIKYASQSLSGIPDRFSGSGSGTDFTLTISRLEPEDFAVYYCHQSSRLHHTFGQGTKVEIK . Reported kon?
Given back: 82800

Asked: Same for VRDN-02537 (antibody, V domains shown) VH: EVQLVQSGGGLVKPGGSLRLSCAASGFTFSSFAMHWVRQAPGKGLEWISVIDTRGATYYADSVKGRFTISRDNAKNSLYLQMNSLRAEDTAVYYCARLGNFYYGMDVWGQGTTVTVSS VL: EIVLTQSPGTLSVSPGERATLSCRASQSIGSSHHWYQQKPGQAPRLLIKYASQSLSGIPDRFSGSGSGTDFTLTISRLEPEDFAVYYCHQSSRLPHTFGQGTKVEIK
Given back: 89300

Asked: # iterate: VRDN-02544 (antibody, V domains shown) VH: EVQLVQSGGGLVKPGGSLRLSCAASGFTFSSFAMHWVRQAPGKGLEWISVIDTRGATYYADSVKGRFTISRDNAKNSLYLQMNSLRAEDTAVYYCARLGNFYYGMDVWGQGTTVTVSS VL: EIVLTQSPGTLSVSPGERATLSCRASQSIGSSLHWYQQKPGQAPRLLIKYASQSHSGIPDRFSGSGSGTDFTLTISRLEPEDFAVYYCHQSSRLPHTFGQGTKVEIK
Given back: 128000

Asked: Follow-up item: VRDN-02502 (antibody, V domains shown) VH: EVQLVQSGGGLVKPGGSLRLSCAASGHTFSSFAMHWVRQAPGKGLEWISVIDTRGATYYADSVKGRFTISRDNAKNSLYLQMNSLRAEDTAVYYCARLGNFYYGMDVWGQGTTVTVSS VL: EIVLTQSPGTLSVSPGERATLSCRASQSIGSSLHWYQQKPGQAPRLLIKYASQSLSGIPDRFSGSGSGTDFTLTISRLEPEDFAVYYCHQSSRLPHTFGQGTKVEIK
Given back: 168000

Asked: Same question for VRDN-02534 (antibody, V domains shown) VH: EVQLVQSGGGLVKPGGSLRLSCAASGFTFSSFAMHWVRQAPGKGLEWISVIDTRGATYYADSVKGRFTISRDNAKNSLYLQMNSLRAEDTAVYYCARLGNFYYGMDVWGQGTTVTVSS VL: EIVLTQSPGTLSVSPGERATLSCRASQSIHSSLHWYQQKPGQAPRLLIKYASQSLSGIPDRFSGSGSGTDFTLTISRLEPEDFAVYYCHQSSRLPHTFGQGTKVEIK please.
Given back: 196000

All figures here come from patent US20240343814A1.
